- System: HEK293 cells
- RUN DESCRIPTION: Preliminary screening as mRNA vectors, EGFP mRNA transfection of HEK293 cells
- Format: cell-based
- ASSAY CONDITIONS: EGFP mRNA 50 ng per well, 96-well plates; percentage of GFP fluorescent cells relative to total number of cells (Hoechst)
PROPERTY: Absolute mRNA transfection efficiency in HEK293 cells (%)
The reply should be a number in %, with the unit left off.

In the examples that follow, each entry is paired with its recorded Absolute mRNA transfection efficiency in HEK293 cells.
CCCCCCCCCCCCCCSc1nc(NCCCCCCCCCCCC)nc(NCCN2CCOCC2)n1 [Compound D2S14N12]; 2.1
CCCCCCCCCCCSc1nc(NCCCCCCCCC)nc(NCCN2CCCC2)n1 [Compound D3S11N9]; 24.5
CCCCCCCCSc1nc(NCCCCCC)nc(NCCN(C)C)n1 [Compound D1S8N6]; 2.4
CCCCCCCCCCCCN(CCCCCCCCCCCC)c1nc(NCCN(C)C)nc(SCCCCCCCCCC)n1 [D1S10^2N12]; 0.4
CCCCCCCCCCCNc1nc(NCC2CCN(C)CC2)nc(SCCCCCC)n1 [Compound D10S6N11]; 4.0

// returns reported Absolute mRNA transfection efficiency in HEK293 cells for input CCCCCCCCCCCCSc1nc(NCCCN2CCN(C)CC2)nc(N(CCCCCCCCCCCC)CCCCCCCCCCCC)n1 [D9S12^2N12]
0.8

// returns reported Absolute mRNA transfection efficiency in HEK293 cells for input CCCCCCCCCCCCCCCCCCSc1nc(NCCN2CCOCC2)nc(N(CCCCCCCCCCCC)CCCCCCCCCCCC)n1 [D2S18^2N12]
0.0

// returns reported Absolute mRNA transfection efficiency in HEK293 cells for input CCCCCCCCCCCCCNc1nc(NCC2CCN(C)CC2)nc(SCCCCCCCC)n1 [Compound D10S8N13]
75.0

// returns reported Absolute mRNA transfection efficiency in HEK293 cells for input CCCCCCCCCCCCCCCCCCNc1nc(NCCN2CCCCC2)nc(SCCCCCCCCC)n1 [Compound D4S9N18]
8.3

---

Listing: Encapsulation rate of selected compounds
- RUN DESCRIPTION: Encapsulation rate of LNP RNA (Qubit RNA HS Assay kit)
- Type: physicochemical
- ASSAY CONDITIONS: LNPs, Formulation Method 1
The reply should be a number in %, with the unit left off.

CCCCCCCCCCCCCCCCSc1nc(NCCCCCCC)nc(NCCCN2CCN(C)CC2)n1 [Compound S16N7D9]; 98.6

// returns reported Encapsulation rate for input CCCCCCCCCCCCCCCCSc1nc(NCCN2CCN(C)CC2)nc(SCCCCCCCCC)n1 [Compound S9S16D5]
99.1

// returns reported Encapsulation rate for input CCCCCCCCCCCCCCCSc1nc(NCCCCCCCCCCC)nc(NCCN2CCN(C)CC2)n1 [Compound S15N11D5]
99.2

---

Listing: Absolute mRNA transfection efficiency in HEK293 cells of selected molecules
- Test system: HEK293 cells
- RUN DESCRIPTION: Preliminary screening as mRNA vectors, EGFP mRNA transfection of HEK293 cells
- Format: cell-based
- ASSAY CONDITIONS: EGFP mRNA 50 ng per well, 96-well plates; percentage of GFP fluorescent cells relative to total number of cells (Hoechst)
The reply should be a number in %, with the unit left off.

In the examples that follow, each entry is paired with its recorded Absolute mRNA transfection efficiency in HEK293 cells.
CCCCCCCCCCCCSc1nc(NCCCCCCCCCCC)nc(NCCCN2CCOCC2)n1 [Compound D8S12N11]; 0.4
CCCCCCCCCCCNc1nc(NCCN2CCCC2)nc(SCCCCCCCCCCC)n1 [Compound D3S11N11]; 33.5
CCCCCCCCCCSc1nc(NCCCN2CCN(C)CC2)nc(SCCCCCCC)n1 [Compound D9S7S10]; 47.1

// returns reported Absolute mRNA transfection efficiency in HEK293 cells for input CCCCCCCCSc1nc(NCCCCCCC)nc(NCCCN2CCN(C)CC2)n1 [Compound D9S8N7]
1.4

// returns reported Absolute mRNA transfection efficiency in HEK293 cells for input CCCCCCCCCCCCCCSc1nc(NCCCCCCCCCCCC)nc(NCCN(CC)CC)n1 [Compound D7S14N12]
6.6

// returns reported Absolute mRNA transfection efficiency in HEK293 cells for input CCCCCCCCCCCCSc1nc(NCCCCCCC)nc(NCCCN(C)C)n1 [Compound D6S12N7]
13.0

// returns reported Absolute mRNA transfection efficiency in HEK293 cells for input CCCCCCCCCCCNc1nc(NCCN2CCCC2)nc(SCCCCCC)n1 [Compound D3S6N11]
0.7

// returns reported Absolute mRNA transfection efficiency in HEK293 cells for input CCCCCCCCCCCCCCCCNc1nc(NCCN2CCCCC2)nc(SCCCCCCCCCCCCCC)n1 [Compound D4S14N16]
1.4

// returns reported Absolute mRNA transfection efficiency in HEK293 cells for input CCCCCCCCCCCCCCCCCCNc1nc(NCCN(C)C)nc(SCCCCCCCCCCCCCCCC)n1 [Compound D1S16N18]
0.5

---

- Test system: Hela cells
- RUN DESCRIPTION: Transfection of Hela cell line, DNA vectors
- Format: cell-based
- ASSAY CONDITIONS: 75 ng plasmid DNA, GFP cells / total cells
- Description: 1. The compound (0.01 mmol) prepared in Example 1 was dissolved in 1 mL of anhydrous ethanol. […] 4. […] The absolute transfection efficiency was calculated as follows: […] Detection (readout): percentage of the number of GFP fluorescent cells relative to the total number of cells (the total number of cells was determined using nucleus dye Hoechst). […]
Use 10% as the dividing line for Absolute DNA transfection efficiency in Hela cells, with the line itself on the fulfilled side and lower values as not fulfilled.

Illustrative cases are given below, each with its answer.
CCCCCCCCCCCSc1nc(NCCCCCCCC)nc(NCCCN(C)C)n1; fulfilled
CCCCCCCCCCCSc1nc(NCCCN2CCOCC2)nc(SCCCCCCCC)n1; not fulfilled
CCCCCCCCCCCNc1nc(NCCN2CCCC2)nc(SCCCCCCCC)n1; fulfilled

Alright, here's another compound for you.
Assess whether reported Absolute DNA transfection efficiency in Hela cells for CCCCCCCCCCCSc1nc(NCCCCCCC)nc(NCC2CCN(C)CC2)n1 sits at 10% or higher.
fulfilled

---

- Tested on: HEK293 cells
- RUN DESCRIPTION: Preliminary screening as DNA vectors, GFP transfection of HEK293 cells
- Format: cell-based
- ASSAY CONDITIONS: HEK293 cells; lipid/DOPE liposome with 75 ng plasmid DNA (psin-EGFP-IRES-Puro); number of cells expressing GFP divided by total number of nuclei (Hoechst)
Listing: Absolute DNA transfection efficiency in HEK293 cells of selected molecules

In the examples that follow, each entry is paired with its recorded Absolute DNA transfection efficiency in HEK293 cells.
CCCCCCCCCCCCNc1nc(NCCCCCCCCC)nc(NCCN2CCCC2)n1 [Compound N9N12D3]; 0.6%
CCCCCCCCCCCCCNc1nc(NCCCCCCCCCCCC)nc(NCC2CCN(C)CC2)n1 [Compound N12N13D10]; 0.2%
CCCCCCCCCCCCCCCCCCNc1nc(NCCCCCCCCC)nc(NCC2CCN(C)CC2)n1 [Compound N9N18D10]; 2.6%

We now examine a further molecule.
Record lookup: for HEK293 cells, what Absolute DNA transfection efficiency in HEK293 cells belongs to CCCCCCCCCCSc1nc(NCCCN2CCOCC2)nc(SCCCCCCCCC)n1 [Compound S9S10D8] ?
22.5%

---

- Test system: cardiomyocytes
- RUN DESCRIPTION: Screening as mRNA vectors in cardiomyocytes
- Format: cell-based
- ASSAY CONDITIONS: 50 ng EGFP mRNA per well
PROPERTY: Absolute mRNA transfection efficiency in cardiomyocytes (%)
The reply should be a number in %, with the unit left off.

In the examples that follow, each entry is paired with its recorded Absolute mRNA transfection efficiency in cardiomyocytes.
CCCCCCCCCCCCSc1nc(NCCN2CCCC2)nc(SCCCCCCCC)n1; 36.7
CCCCCCCCCCCCCCSc1nc(NCCCN2CCN(C)CC2)nc(SCCCCCCCCC)n1; 12.4
CCCCCCCCCCCNc1nc(NCCN2CCCC2)nc(SCCCCCCCCC)n1; 16.7
CCCCCCCCCCCCCCCSc1nc(NCCCN(C)C)nc(SCCCCCCCCC)n1; 12.9
CCCCCCCCCCCCCCSc1nc(NCC2CCN(C)CC2)nc(SCCCCCCCCC)n1; 34.4

// returns reported Absolute mRNA transfection efficiency in cardiomyocytes for input CCCCCCCCCCCCCCSc1nc(NCCN2CCCC2)nc(SCCCCCCCCC)n1
72.4

// returns reported Absolute mRNA transfection efficiency in cardiomyocytes for input CCCCCCCCCCCNc1nc(NCCCN2CCOCC2)nc(SCCCCCCCCC)n1
4.4

// returns reported Absolute mRNA transfection efficiency in cardiomyocytes for input CCCCCCCCCCCSc1nc(NCCN2CCN(C)CC2)nc(SCCCCCCCC)n1
2.7

// returns reported Absolute mRNA transfection efficiency in cardiomyocytes for input CCCCCCCCCCCCCCCSc1nc(NCC2CCN(C)CC2)nc(SCCCCCCCCC)n1
4.3

// returns reported Absolute mRNA transfection efficiency in cardiomyocytes for input CCCCCCCCCCCSc1nc(NCCCCCCCCC)nc(NCC2CCN(C)CC2)n1
29.6

// returns reported Absolute mRNA transfection efficiency in cardiomyocytes for input CCCCCCCCCCCCNc1nc(NCCN2CCN(C)CC2)nc(SCCCCCCCCC)n1
25.5

// returns reported Absolute mRNA transfection efficiency in cardiomyocytes for input CCCCCCCCCCCCSc1nc(NCCCN2CCN(C)CC2)nc(SCCCCCCCC)n1
14.0

// returns reported Absolute mRNA transfection efficiency in cardiomyocytes for input CCCCCCCCCCCCSc1nc(NCCN2CCCC2)nc(SCCCCCCCCC)n1
65.7

// returns reported Absolute mRNA transfection efficiency in cardiomyocytes for input CCCCCCCCCCCSc1nc(NCC2CCN(C)CC2)nc(SCCCCCCCC)n1
20.8
